Listing of recorded pIC50 by entry.
# study.system: various mutants of kinase EGFR (BaF3 cell lines stably transfected with kinase) (Homo sapiens, UniProt P00533, T790M, form not given)
# Construct: other: BaF3 cells stably transfected with EGFR Δ19Del/T790M; MTS, 48 h; other: BaF3 cell line stably transfected with EGFR Δ19Del/T790M; MTS, 48
# Sequence (P00533 with tags, fused parts or gaps DEL746-750/T790M, form open): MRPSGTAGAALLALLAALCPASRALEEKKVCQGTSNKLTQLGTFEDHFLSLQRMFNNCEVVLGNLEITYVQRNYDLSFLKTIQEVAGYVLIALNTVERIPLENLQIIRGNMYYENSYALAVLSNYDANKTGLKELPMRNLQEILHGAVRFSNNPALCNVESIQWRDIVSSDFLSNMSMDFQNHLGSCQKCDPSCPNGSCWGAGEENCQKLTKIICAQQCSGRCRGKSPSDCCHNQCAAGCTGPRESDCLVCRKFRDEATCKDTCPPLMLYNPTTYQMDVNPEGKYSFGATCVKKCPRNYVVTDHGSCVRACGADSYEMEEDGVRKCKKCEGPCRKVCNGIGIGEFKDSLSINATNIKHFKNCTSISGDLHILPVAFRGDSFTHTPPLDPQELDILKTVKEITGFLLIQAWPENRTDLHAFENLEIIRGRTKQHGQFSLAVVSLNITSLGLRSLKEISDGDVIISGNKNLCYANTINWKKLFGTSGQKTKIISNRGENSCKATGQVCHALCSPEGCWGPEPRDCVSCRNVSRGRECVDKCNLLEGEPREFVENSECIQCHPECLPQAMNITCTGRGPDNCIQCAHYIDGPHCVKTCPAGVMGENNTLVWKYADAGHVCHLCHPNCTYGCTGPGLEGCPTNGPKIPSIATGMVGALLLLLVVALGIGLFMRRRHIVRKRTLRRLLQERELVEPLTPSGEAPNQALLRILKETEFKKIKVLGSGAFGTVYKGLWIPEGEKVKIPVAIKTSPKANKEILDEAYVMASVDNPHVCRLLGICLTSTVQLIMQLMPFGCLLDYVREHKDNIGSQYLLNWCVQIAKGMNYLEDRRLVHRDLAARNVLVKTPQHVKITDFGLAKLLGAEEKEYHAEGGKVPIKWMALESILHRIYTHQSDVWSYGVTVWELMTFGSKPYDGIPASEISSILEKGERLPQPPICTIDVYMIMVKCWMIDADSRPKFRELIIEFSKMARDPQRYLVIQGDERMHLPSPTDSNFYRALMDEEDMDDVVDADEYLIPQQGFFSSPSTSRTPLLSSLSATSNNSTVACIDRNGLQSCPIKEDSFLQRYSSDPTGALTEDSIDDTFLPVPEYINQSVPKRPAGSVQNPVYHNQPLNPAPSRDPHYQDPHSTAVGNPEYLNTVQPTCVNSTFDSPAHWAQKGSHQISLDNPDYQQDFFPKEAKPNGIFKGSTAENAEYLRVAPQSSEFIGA
# assay.text: Growth inhibitory activity of compounds on BaF3 cell lines stably transfected with kinase (MTS, 48 h)
# Assay type: cell-based
# run.parameters: BaF3 cell line stably transfected with EGFR Δ19Del/T790M, read-out: Δ19Del/ T790M growth inhibitory activity IC50
pIC50: −log10 of the molar value.

Examples with their reported pIC50 follow.
1. COc1cc(N2CCC(N3CCN(C)CC3)CC2)c(C)cc1Nc1ncc(C(C)C)c(Nc2ccc3nccnc3c2N(C)S(C)(=O)=O)n1	6.30 to 7.30
2. CCc1cc(Nc2ncc(OC)c(Nc3ccc4nccnc4c3N(C)S(C)(=O)=O)n2)c(OC)nc1N1CCC(N2CCN(C)CC2)CC1	≥ 7.30
3. CCN(c1c(Nc2nc(Nc3cc(N4CCC(O)CC4)ccc3OC)ncc2Br)ccc2nccnc12)S(C)(=O)=O	≥ 7.30
4. CCc1cc(Nc2nc(Nc3ccc4nccnc4c3N(C)S(C)(=O)=O)c3cc[nH]c3n2)c(OC(F)(F)F)cc1N1CCC(N2CCN(C)CC2)CC1	≥ 7.30

Given the compound CCN(c1c(Nc2nc(Nc3cc(N4CCC(O)CC4)ccc3OC)ncc2Cl)ccc2nccnc12)S(C)(=O)=O , what is its reported pIC50?
≥ 7.30

Given the compound C=Cc1cc(Nc2nc(Nc3ccc4nccnc4c3N(C)S(C)(=O)=O)c3cc[nH]c3n2)c(OC(F)(F)F)cc1N1CCC(N2CCN(C)CC2)CC1 , what is its reported pIC50?
≥ 7.30

Given the compound COc1cc(N2CCC(N3CCN(C)CC3)CC2)c(C(C)C)cc1Nc1nccc(Nc2ccc3nccnc3c2N(C)S(C)(=O)=O)n1 , what is its reported pIC50?
6.30 to 7.30

Given the compound COc1cc(N2CCN(C)CC2)c(C)cc1Nc1nc(Nc2ccc3nccnc3c2N(C)S(C)(=O)=O)c2cc[nH]c2n1 , what is its reported pIC50?
≥ 7.30
